# experimental.target: TprA (Pseudomonas aeruginosa PA14, UniProt A0A0H2ZFZ8 1-84)
# experiment.summary: EMSA
# condition.details: protein: recombinant; tags: His-tag removed by TEV; chain copies: 2; label: 5'-Cy5 on strand 1; blunt
measured.property: binding result

R3.3 (dsDNA) DNA 1: TACTGTCTGACCTGAGTTCAACAAAGCATTCTA DNA 2: TAGAATGCTTTGTTGAACTCAGGTCAGACAGTA | no binding
R3.1 (dsDNA) DNA 1: AATTTAGCCCAATAGTATTTAAAGCTCAATTAGCAC DNA 2: GTGCTAATTGAGCTTTAAATACTATTGGGCTAAATT | no binding
R3.4 (dsDNA) DNA 1: ATTCTAAAACGATTAGAACTTCTATTTTATCCA DNA 2: TGGATAAAATAGAAGTTCTAATCGTTTTAGAAT | no binding
R3.2 (tprA-BS) (dsDNA) DNA 1: AGTATTTAAAGCTCAATTAGCACCCCGTACTGT DNA 2: ACAGTACGGGGTGCTAATTGAGCTTTAAATACT | binds
